pIC50 values by entry
target: Human recombinant aldose reductase (Homo sapiens); construct: made in house; host or cells: Sf9 insect cells (Spodoptera frugiperda) infected with recombinant baculovirus AcAR; assay: Inhibition of human recombinant aldose reductase (NADPH disappearance at 340 nm); type: biochemical; conditions: recombinant enzyme, 37° C., pH 6.2, 10 mM glyceraldehyde, 0.1 mM NADPH; read-out: INHIBITION, IC50 Aldose Reductase
The quantity pIC50 is defined as the negative base-10 logarithm of the molar concentration.

{"columns": ["molecule", "numeric.value"],
 "data": [
  ["Oc1c(Oc2cc(Br)c(Br)c(Br)c2O)cc(Br)c(Br)c1Br", 5.40],
  ["Oc1c(F)c(F)c(-c2c(F)c(F)c(O)c(F)c2F)c(F)c1F [A-VII, hydrate]", 6.66],
  ["O=C(c1cc(Br)cc(Br)c1O)c1cc(Br)cc(Br)c1O", 5.40],
  ["Oc1c(Cl)c(Cl)c(-c2c(Cl)c(Cl)c(O)c(Cl)c2Cl)c(Cl)c1Cl", 4.96]
]}

# input for lookup
stdin: Enter reported pIC50 observed with Human recombinant aldose reductase (Homo sapiens) for Oc1c(Br)c(Br)c(-c2c(Br)c(Br)c(O)c(Br)c2Br)c(Br)c1Br
stdout: 6.00
